Kd for assorted binders
- Measurement target: human CEA (hu N(A2-B2)A-avi-His B) (human)
- Sequence (P06731 whole entry): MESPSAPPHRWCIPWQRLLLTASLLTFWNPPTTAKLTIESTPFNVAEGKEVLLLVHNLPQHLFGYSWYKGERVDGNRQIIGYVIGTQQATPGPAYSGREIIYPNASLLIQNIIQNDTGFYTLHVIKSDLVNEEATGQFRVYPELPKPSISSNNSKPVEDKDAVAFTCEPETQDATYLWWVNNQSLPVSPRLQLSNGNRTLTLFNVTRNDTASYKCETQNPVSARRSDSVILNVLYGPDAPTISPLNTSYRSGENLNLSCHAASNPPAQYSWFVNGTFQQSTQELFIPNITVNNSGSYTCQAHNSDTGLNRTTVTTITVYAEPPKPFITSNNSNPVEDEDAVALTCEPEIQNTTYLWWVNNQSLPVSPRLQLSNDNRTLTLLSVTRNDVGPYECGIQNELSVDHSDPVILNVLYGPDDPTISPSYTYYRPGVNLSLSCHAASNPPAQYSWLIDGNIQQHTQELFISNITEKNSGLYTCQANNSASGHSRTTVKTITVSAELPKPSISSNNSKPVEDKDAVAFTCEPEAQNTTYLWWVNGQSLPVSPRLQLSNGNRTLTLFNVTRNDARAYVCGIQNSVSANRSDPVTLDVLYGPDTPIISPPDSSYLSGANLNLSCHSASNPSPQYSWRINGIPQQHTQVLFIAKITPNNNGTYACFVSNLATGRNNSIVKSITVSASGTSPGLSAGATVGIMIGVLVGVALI
- Measurement protocol: SPR (Biacore T200), hu N(A2-B2)A-avi-His B immobilised, Fab as analyte, 1:1 Langmuir fit
Return type: number; implicit unit nM.

Binder: P1AE4143, Fab derived from P1AE2182 (Fab, V domains shown) VH: EVQLLESGGGLVQPGGSLRLSCAASGFTFTDYYMNWVRQAPGKGLEWVGFIGNKANGYTTEYSASVKGRFTISRDKSKNTLYLQMNSLRAEDTAVYYCARDRGLRFYFDYWGQGTTVTVSS VL: EIVLTQSPATLSLSPGERATLSCRASSSVTYIHWYQQKPGQAPRSWIYATSNLASGIPARFSGSGSGTDFTLTISSLEPEDFAVYYCQHWSSKPPTFGQGTKLEIK
Kd / nM: 2.92
--
Binder: P1AE4140, Fab derived from P1AE2177 (Fab, V domains shown) VH: EVQLLESGGGLVQPGGSLRLSCAASGFTFTDYYMNWVRQAPGKGLEWVGFIGNKANGYTTEYSASVKGRFTISRDNSKNTLYLQMNSLRAEDTAVYYCTRDRGLRFYFDYWGQGTTVTVSS VL: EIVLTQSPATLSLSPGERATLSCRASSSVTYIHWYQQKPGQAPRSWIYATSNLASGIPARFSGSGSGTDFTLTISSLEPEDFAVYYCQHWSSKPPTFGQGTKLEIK
Kd / nM: 7.62
--
Binder: P1AE4139, Fab derived from P1AE2176 (Fab, V domains shown) VH: EVQLLESGGGLVQPGGSLRLSCAASGFTFTDYYMNWVRQAPGKGLEWVGFIGNKANGYTTEYSASVKGRFTISRDNSKNTLYLQMNSLRAEDTAVYYCTRDRGLRFYFDYWGQGTTVTVSS VL: EIVLTQSPATLSLSPGERATLSCRASSSVTYIHWYQQKPGSSPKSWIYATSNLASGIPARFSGSGSGTDFTLTISSLEPEDFAVYYCQHWSSKPPTFGQGTKLEIK
Kd / nM: 7.58
--
Binder: P1AE0289, CEA (A5B7) Fab (parental murine antibody) (Fab, V domains shown) VH: EVKLVESGGGLVQPGGSLRLSCATSGFTFTDYYMNWVRQPPGKALEWLGFIGNKANGYTTEYSASVKGRFTISRDKSQSILYLQMNTLRAEDSATYYCTRDRGLRFYFDYWGQGTTLTVSS VL: QTVLSQSPAILSASPGEKVTMTCRASSSVTYIHWYQQKPGSSPKSWIYATSNLASGVPARFSGSGSGTSYSLTISRVEAEDAATYYCQHWSSKPPTFGGGTKLEIK
Kd / nM: 0.559

// below: Kd requested for another binder
Query: Recorded Kd of P1AE4142, Fab derived from P1AE2181 (Fab, V domains shown) VH: EVQLLESGGGLVQPGGSLRLSCAASGFTFTDYYMNWVRQAPGKGLEWVGFIGNKANGYTTEYSASVKGRFTISRDKSKNTLYLQMNSLRAEDTAVYYCARDRGLRFYFDYWGQGTTVTVSS VL: EIVLTQSPATLSLSPGERATLSCRASSSVTYIHWYQQKPGSSPKSWIYATSNLASGIPARFSGSGSGTDFTLTISSLEPEDFAVYYCQHWSSKPPTFGQGTKLEIK , please.
Response: 2.64
